Biological target: human serum albumin (HSA) (Homo sapiens, UniProt P02768)
Sequence (P02768 25-609): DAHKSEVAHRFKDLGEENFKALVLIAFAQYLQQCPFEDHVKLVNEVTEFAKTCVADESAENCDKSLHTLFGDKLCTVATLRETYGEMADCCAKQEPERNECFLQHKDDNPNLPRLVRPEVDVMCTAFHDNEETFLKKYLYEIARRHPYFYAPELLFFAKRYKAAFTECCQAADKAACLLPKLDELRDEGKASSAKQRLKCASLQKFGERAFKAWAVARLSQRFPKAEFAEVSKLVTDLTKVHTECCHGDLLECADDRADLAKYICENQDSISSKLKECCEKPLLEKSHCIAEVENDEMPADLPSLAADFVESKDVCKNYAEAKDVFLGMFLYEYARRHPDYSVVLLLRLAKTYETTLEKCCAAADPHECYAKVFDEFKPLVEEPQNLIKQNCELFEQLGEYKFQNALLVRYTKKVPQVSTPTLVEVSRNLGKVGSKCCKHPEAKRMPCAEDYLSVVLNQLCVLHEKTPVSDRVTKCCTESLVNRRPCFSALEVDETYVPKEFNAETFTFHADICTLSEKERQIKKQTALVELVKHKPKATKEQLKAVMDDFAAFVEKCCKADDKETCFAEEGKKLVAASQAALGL
Assay: Fluorescence emission spectrum (quenching) of HSA with carbamate pesticides
Assay type: binding
Settings: 303 K
property_measured: ΔG^0 (kcal/mol)

compound=CNC(=O)Oc1ccc(N(C)C)c(C)c1 property_measured=ΔG^0 meas_value=-4.0531
compound="CNC(=O)Oc1cc(C)cc(C)c1 [XMC, 3,5-xylyl methylcarbamate]" property_measured=ΔG^0 meas_value=-4.9309
compound=CNC(=O)Oc1ccccc1C(C)C property_measured=ΔG^0 meas_value=-3.9873
compound=CNC(=O)O/N=C(\CS(C)(=O)=O)C(C)(C)C property_measured=ΔG^0 meas_value=-4.9596

----------
Biological target: human serum albumin (HSA) (Homo sapiens)
Assay: Fluorescence emission spectrum (quenching) of HSA with carbamate pesticides
Assay type: binding
Settings: 37°, modelling table
property_measured: ΔG(37°)

molecule="CNC(=O)Oc1cc(C)cc(C(C)C)c1 [Promecarb, promecarb]" meas_value=−21.38
molecule="CCC(C)c1ccccc1OC(=O)NC (stereo not drawn) [Fenobucarb, fenobucarb]" meas_value=−15.31
molecule="CNC(=O)Oc1ccccc1OC(C)C [Propoxur, propoxur]" meas_value=−20.63
